Numbers sourced from the supplement of paper PMC11061612.

Listed here: items and their measured Bliss excess.
- System: KLE (Endometrial Carcinoma)
- assay explanation: Bliss excess, mean over the matrix (fraction); higher = more synergy;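 also: after 72 h of two-drug dosing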

// below: answered compounds
C=CCn1c(=O)c2cnc(Nc3ccc(N4CCN(C)CC4)cc3)nc2n1-c1cccc(C(C)(C)O)n1 [AZD1775] + C1CN(CCC1(C(=O)N[C@@H](CCO)C2=CC=C(C=C2)Cl)N)C3=NC=NC4=C3C=CN4 [Capivasertib] (first compound max 3 µM, partner max 3 µM) = -0.0627
CC(=O)c1c(C)c2cnc(Nc3ccc(N4CCNCC4)cn3)nc2n(C2CCCC2)c1=O [Palbociclib] + Cc1c2c(nn1C)CSCc1cc(n(C)n1)CSc1cc(c3ccccc3c1)OCCCc1c(C(=O)O)n(C)c3c-2c(Cl)ccc13 [AZD5991] (first compound max 10 µM, 7x7, partner max 1 µM) = -0.082
COc1cccc(OCCCN)c1-c1cc(Nc2cnc(C#N)cn2)n[nH]1 [Prexasertib] + CCc1c2c(nc3ccc(O)cc13)-c1cc3c(c(=O)n1C2)COC(=O)[C@]3(O)CC [SN-38] (first compound max 1 µM, 7x7, partner max 0.3 µM) = 0.0285

Challenge: Answer with the recorded Bliss excess for the compound listed here: NC1(C(=O)N[C@@H](CCO)c2ccc(Cl)cc2)CCN(c2ncnc3[nH]ccc23)CC1 [Capivasertib] + CC(C)n1c(=O)n(C)c2cnc3cc(F)c(-c4ccc(OCCCN5CCCCC5)nc4)cc3c21 [AZD1390] (first compound max 10 µM, 7x7, partner max 0.3 µM)
Response given: -0.0455

* * *

- System: NH-12 (Neuroblastoma)
- assay explanation: Bliss excess, mean over the matrix (fraction); higher = more synergy
result type: Bliss excess

C=CCn1c(=O)c2cnc(Nc3ccc(N4CCN(C)CC4)cc3)nc2n1-c1cccc(C(C)(C)O)n1 [AZD1775] + C[C@@H]1COCCN1C2=NC(=NC(=C2)C3(CC3)[S@](=N)(=O)C)C4=C5C=CNC5=NC=C4 [AZD6738] (first compound max 1 µM, partner max 10 µM) = 0.0262
COc1cccc2c1C(=O)c1c(O)c3c(c(O)c1C2=O)C[C@@](O)(C(=O)CO)C[C@@H]3O[C@H]1C[C@H](N)[C@H](O)[C@H](C)O1 [Doxorubicin] + Cc1cc2ncnn2cc1Nc1ncc2c(n1)n(C1CCOCC1)c(=O)n2C [AZD7648] (first compound max 1 µM, 7x7, partner max 10 µM) = 0.0953
COc1cc2ncnc(Nc3ccc(F)c(Cl)c3)c2cc1OCCCN1CCOCC1 [Gefitinib] + CC(C)n1c(=O)n(C)c2cnc3cc(F)c(-c4ccc(OCCCN5CCCCC5)nc4)cc3c21 [AZD1390] (first compound max 10 µM, 7x7, partner max 0.3 µM) = -0.0643

# input for lookup
Challenge: Give the value of Bliss excess reported for the following: Cn1cnc2c(F)c(Nc3ccc(Br)cc3Cl)c(C(=O)NOCCO)cc21 [Selumetinib] + C[C@@H]1COCCN1C2=NC(=NC(=C2)C3(CC3)[S@](=N)(=O)C)C4=C5C=CNC5=NC=C4 [AZD6738] (first compound max 10 µM, 7x7, partner max 10 µM)
Response given: 0.0315

* * *

- Test system: LC4-1 (B-Lymphoblastic Leukemia)
- assay explanation: Bliss excess, mean over the matrix (fraction); higher = more synergy
Measured Bliss excess, listed per entry.
Hey, just send me the number, nothing else.

Cc1cc2ncnn2cc1Nc1ncc2c(n1)n(C1CCOCC1)c(=O)n2C [AZD7648] + COc1cc([C@@H]2c3cc4c(cc3[C@@H](O[C@@H]3O[C@@H]5CO[C@@H](C)O[C@H]5[C@H](O)[C@H]3O)[C@H]3COC(=O)[C@H]23)OCO4)cc(OC)c1O [Etoposide] (first compound max 10 µM, 7x7, partner max 10 µM) = 0.0856

Challenge: Name the value of Bliss excess reported for C[C@@H]1COCCN1c1cc(C2([S@](C)(=N)=O)CC2)nc(-c2ccnc3[nH]ccc23)n1 [AZD6738] + C1CC(C1)(C(=O)[O-])C(=O)[O-].N.N.[Pt+2] [Carboplatin] (first compound max 10 µM, 7x7, partner max 10 µM) when tested on LC4-1 (B-Lymphoblastic Leukemia).
Response given: -0.0504

Challenge: Determine reported Bliss excess for Cc1c2c(nn1C)CSCc1cc(n(C)n1)CSc1cc(c3ccccc3c1)OCCCc1c(C(=O)O)n(C)c3c-2c(Cl)ccc13 [AZD5991] + CN(C)CCCOc1ccc(-c2ccc3ncc4c(c3c2)n(C2CCOCC2)c(=O)n4C)cn1 [AZD0156] (first compound max 1 µM, 7x7, partner max 1 µM) ; test system: LC4-1 (B-Lymphoblastic Leukemia).
Response given: -0.0177

Challenge: Fill in Bliss excess for C=CCn1c(=O)c2cnc(Nc3ccc(N4CCN(C)CC4)cc3)nc2n1-c1cccc(C(C)(C)O)n1 [AZD1775] + Nc1ccn([C@@H]2O[C@H](CO)[C@@H](O)C2(F)F)c(=O)n1 [Gemcitabine] (first compound max 1 µM, partner max 0.3 µM) tested with LC4-1 (B-Lymphoblastic Leukemia).
Response given: 0.0478
